Bridge positions count the residues as written; N and C are the ends. Square brackets hold non-standard residues; d marks the D form. Peptide text beside a SMILES is read from it. * marks the point of attachment. Phe(4-NH2) = Nc1ccc(C[C@H](N)C(=O)O)cc1; Octanoyl = CCCCCCCC(=O)*; Dab = NCC[C@H](N)C(=O)O
Parameter MIC, tested on P. aeruginosa PA9704, PmxR, listed per item.

MOLECULE: CCCCCCCC(=O)N[C@@H](CCN)C(=O)N[C@H](C(=O)N[C@@H](CCN)C(=O)N[C@H]1CCNC(=O)[C@H]([C@@H](C)O)NC(=O)[C@H](CCN)NC(=O)[C@H](CCN)NC(=O)[C@H](CC(C)C)NC(=O)[C@@H](Cc2ccccc2)NC(=O)[C@H](CCN)NC1=O)[C@@H](C)O [Compound 11, polymyxin B3] (Octanoyl-[Dab]T[Dab][Dab][Dab][dF]L[Dab][Dab]T; lactam 4-C)
RECORDED_ENDPOINT: MIC
TEST_RESULT: > 128 µg/mL

Turning now to a further molecule:
Value of measured MIC for the entry CCCCCCCC(=O)N[C@@H](CCN)C(=O)N[C@H](C(=O)N[C@@H](CCN)C(=O)N[C@H]1CCNC(=O)[C@H]([C@@H](C)O)NC(=O)[C@H](CCN)NC(=O)[C@H](CCN)NC(=O)[C@H](CC(C)C)NC(=O)[C@@H](Cc2ccccc2)NC(=O)[C@H](Cc2ccc(N)cc2)NC1=O)[C@@H](C)O [Compound 34] (Octanoyl-[Dab]T[Dab][Dab][Phe(4-NH2)][dF]L[Dab][Dab]T; lactam 4-C) : > 32 µg/mL

----------
# Test system: K. pneumoniae CI 138-16357-20362, PmxR
# CONDITION_CONTEXT: MIC K. pneumoniae CI 138-16357-20362, PmxR (µg/mL)
Bridge positions count the residues as written; N and C are the ends. Square brackets hold non-standard residues; d marks the D form. Peptide text beside a SMILES is read from it. * marks the point of attachment. Phe(4-NH2) = Nc1ccc(C[C@H](N)C(=O)O)cc1; Octanoyl = CCCCCCCC(=O)*; Dab = NCC[C@H](N)C(=O)O
RECORDED_ENDPOINT: MIC

Solved cases below.
MOLECULE: CCCCCCCC(=O)N[C@@H](CCN)C(=O)N[C@H](C(=O)N[C@@H](CCN)C(=O)N[C@H]1CCNC(=O)[C@H]([C@@H](C)O)NC(=O)[C@H](CCN)NC(=O)[C@H](CCN)NC(=O)[C@H](CC(C)C)NC(=O)[C@@H](Cc2ccccc2)NC(=O)[C@H](CCN)NC1=O)[C@@H](C)O [Compound 11, polymyxin B3] (Octanoyl-[Dab]T[Dab][Dab][Dab][dF]L[Dab][Dab]T; lactam 4-C)
MIC: > 128 µg/mL
//
MOLECULE: CCCCCCCC(=O)N[C@@H](CCN)C(=O)N[C@H](C(=O)N[C@@H](CCN)C(=O)N[C@H]1CCNC(=O)[C@H]([C@@H](C)O)NC(=O)[C@H](CCN)NC(=O)[C@H](CCN)NC(=O)[C@H](CC(C)C)NC(=O)[C@@H](Cc2ccccc2)NC(=O)[C@H](CCNC(=O)[C@@H](N)CCC(=O)O)NC1=O)[C@@H](C)O [Compound 32] (Octanoyl-[Dab]T[Dab][Dab][Dab](Glu)[dF]L[Dab][Dab]T; lactam 4-C)
MIC: > 32 µg/mL
//
MOLECULE: CCCCCCCC(=O)N[C@@H](CCN)C(=O)N[C@H](C(=O)N[C@@H](CCN)C(=O)N[C@H]1CCNC(=O)[C@H]([C@@H](C)O)NC(=O)[C@H](CCNC(=O)[C@@H](N)CCCNC(=N)N)NC(=O)[C@H](CCN)NC(=O)[C@H](CC(C)C)NC(=O)[C@@H](Cc2ccccc2)NC(=O)[C@H](CCN)NC1=O)[C@@H](C)O [Compound 18] (Octanoyl-[Dab]T[Dab][Dab][Dab][dF]L[Dab][Dab](Arg)T; lactam 4-C)
MIC: > 32 µg/mL
//
MOLECULE: CCCCCCCC(=O)N[C@@H](CCN)C(=O)N[C@H](C(=O)N[C@@H](CCN)C(=O)N[C@H]1CCNC(=O)[C@H]([C@@H](C)O)NC(=O)[C@H](CCN)NC(=O)[C@H](CCN)NC(=O)[C@H](CC(C)C)NC(=O)[C@@H](Cc2ccccc2)NC(=O)[C@H](CCNC(=O)[C@@H](N)CCCNC(=N)N)NC1=O)[C@@H](C)O [Compound 31] (Octanoyl-[Dab]T[Dab][Dab][Dab](Arg)[dF]L[Dab][Dab]T; lactam 4-C)
MIC: > 32 µg/mL

Turning now to a further molecule:
Value of measured MIC for the entry CCCCCCCC(=O)N[C@@H](CCN)C(=O)N[C@H](C(=O)N[C@@H](CCN)C(=O)N[C@H]1CCNC(=O)[C@H]([C@@H](C)O)NC(=O)[C@H](Cc2ccc(N)cc2)NC(=O)[C@H](CCN)NC(=O)[C@H](CC(C)C)NC(=O)[C@@H](Cc2ccccc2)NC(=O)[C@H](CCN)NC1=O)[C@@H](C)O [Compound 20] (Octanoyl-[Dab]T[Dab][Dab][Dab][dF]L[Dab][Phe(4-NH2)]T; lactam 4-C) : > 32 µg/mL

----------
This section presents compounds with their documented MIC values.
# Test system: K. pneumoniae CI 138-16357-20362, PmxR
# CONDITION_CONTEXT: MIC K. pneumoniae CI 138-16357-20362, PmxR (µg/mL)
Bridge positions count the residues as written; N and C are the ends. Square brackets hold non-standard residues; d marks the D form. Peptide text beside a SMILES is read from it. * marks the point of attachment. dDab = NCC[C@@H](N)C(=O)O; Octanoyl = CCCCCCCC(=O)*; Dab = NCC[C@H](N)C(=O)O

COMPOUND: CCCCCCCC(=O)N[C@@H](CCN)C(=O)N[C@H](C(=O)N[C@@H](CCN)C(=O)N[C@H]1CCNC(=O)[C@H]([C@@H](C)O)NC(=O)[C@H](CCCNC(=N)N)NC(=O)[C@H](CCN)NC(=O)[C@H](CC(C)C)NC(=O)[C@@H](Cc2ccccc2)NC(=O)[C@H](CCN)NC1=O)[C@@H](C)O [Compound 21] (Octanoyl-[Dab]T[Dab][Dab][Dab][dF]L[Dab]RT; lactam 4-C)
RECORDED_ENDPOINT: MIC
TEST_RESULT: > 32 µg/mL

Value of measured MIC for the entry CCCCCCCC(=O)N[C@@H](CCN)C(=O)N[C@H](C(=O)N[C@H](CCN)C(=O)N[C@H]1CCNC(=O)[C@H]([C@@H](C)O)NC(=O)[C@H](CCN)NC(=O)[C@H](CCN)NC(=O)[C@H](CC(C)C)NC(=O)[C@@H](Cc2ccccc2)NC(=O)[C@H](CCN)NC1=O)[C@@H](C)O [Compound 36] (Octanoyl-[Dab]T[dDab][Dab][Dab][dF]L[Dab][Dab]T; lactam 4-C) : > 32 µg/mL

----------
# Test system: K. pneumoniae CI 138-16357-20362, PmxR
# ASSAY_PROTOCOL: microbe, parasite or virus in culture
# Assay type: cell-based, Klebsiella pneumoniae
# CONDITION_CONTEXT: carbapenem & polymyxin resistant clinical isolate; MHB, 5 × 10^5 CFU/mL, 18 h at 37 °C
Bridge positions count the residues as written; N and C are the ends. Square brackets hold non-standard residues; d marks the D form. Peptide text beside a SMILES is read from it. * marks the point of attachment. dDab = NCC[C@@H](N)C(=O)O; Octanoyl = CCCCCCCC(=O)*; Dab = NCC[C@H](N)C(=O)O
This section presents compounds with their documented MIC K. pneumoniae CI 138-16357-20362, PmxR values.

Value of measured MIC K. pneumoniae CI 138-16357-20362, PmxR for the entry CCCCCCCC(=O)N[C@@H](CCN)C(=O)N[C@H](C(=O)N[C@H](CCN)C(=O)N[C@H]1CCNC(=O)[C@H]([C@@H](C)O)NC(=O)[C@H](CCN)NC(=O)[C@H](CCN)NC(=O)[C@H](CC(C)C)NC(=O)[C@@H](Cc2ccccc2)NC(=O)[C@H](CCN)NC1=O)[C@@H](C)O [Compound 36] (Octanoyl-[Dab]T[dDab][Dab][Dab][dF]L[Dab][Dab]T; lactam 4-C) : >32 µg/mL

----------
# System: A. baumannii CI Ptyela 100734512:2, PmxR
# ASSAY_PROTOCOL: microbe, parasite or virus in culture
# Format: cell-based, Acinetobacter baumannii
# CONDITION_CONTEXT: carbapenem & polymyxin resistant clinical isolate; MHB, 5 × 10^5 CFU/mL, 18 h at 37 °C
Numbered stars: 1 amine (or outer) side, 2 acyl side, 3 side chain; on linkers, the order of the positions; unused ones are H or OH. Bridge positions count the residues as written; N and C are the ends. Square brackets hold non-standard residues; d marks the D form. Peptide text beside a SMILES is read from it. * marks the point of attachment. NH(2-ClPh) = Clc1ccccc1N*; dDab = NCC[C@@H](N)C(=O)O; Dab = NCC[C@H](N)C(=O)O; CO = O=C([*:1])[*:2]
This section presents molecules with their documented MIC A. baumannii CI Ptyela 100734512:2, PmxR values.

MOLECULE: CC[C@H](C)CCCCC(=O)N[C@@H](CCN)C(=O)N[C@H](C(=O)N[C@@H](CCN)C(=O)N[C@H]1CCNC(=O)[C@H]([C@@H](C)O)NC(=O)[C@H](CCN)NC(=O)[C@H](CCN)NC(=O)[C@H](CC(C)C)NC(=O)[C@@H](Cc2ccccc2)NC(=O)[C@H](CCN)NC1=O)[C@@H](C)O
EXPERIMENTAL_SYSTEM: A. baumannii CI Ptyela 100734512:2, PmxR
TEST_RESULT: 64 µg/mL

MOLECULE: CC(C)C[C@@H]1NC(=O)[C@@H](Cc2ccccc2)NC(=O)[C@H](CCN)NC(=O)[C@@H](NC(=O)[C@H](CCN)NC(=O)[C@@H](NC(=O)[C@H](CCN)NC(=O)Nc2ccccc2Cl)[C@@H](C)O)CCNC(=O)[C@H]([C@@H](C)O)NC(=O)[C@H](CCN)NC(=O)[C@H](CCN)NC1=O [Compound 13] ({NH(2-ClPh)-CO}-[Dab]T[Dab][Dab][Dab][dF]L[Dab][Dab]T; lactam 4-C)
EXPERIMENTAL_SYSTEM: A. baumannii CI Ptyela 100734512:2, PmxR
TEST_RESULT: >32 µg/mL

The reported MIC A. baumannii CI Ptyela 100734512:2, PmxR value, A. baumannii CI Ptyela 100734512:2, PmxR, for CC(C)C[C@@H]1NC(=O)[C@@H](Cc2ccccc2)NC(=O)[C@H](CCN)NC(=O)[C@@H](NC(=O)[C@@H](CCN)NC(=O)[C@@H](NC(=O)[C@H](CCN)NC(=O)Nc2ccccc2Cl)[C@@H](C)O)CCNC(=O)[C@H]([C@@H](C)O)NC(=O)[C@H](CCN)NC(=O)[C@H](CCN)NC1=O [Compound 16] ({NH(2-ClPh)-CO}-[Dab]T[dDab][Dab][Dab][dF]L[Dab][Dab]T; lactam 4-C) reads >32 µg/mL
